test: Plasma Mfp levels in rats; assay type: in vivo, rat; conditions: female, Wistar, rat, plasma, ip, AUC for plasma Mfp, − Rtv, female rats, 3 x 5 mg/kg Mfp i.p., without Rtv
observation_type: AUC

> print(dat)
                                   compound  observation.type        result
1  CC#C[C@]1(O)CC[C@H]2[C@@H]3CCC4=CC(=O)CCC4=C3[C@@H](c3ccc(N(C)C)cc3)C[C@@]21C [Mfp, mifepristone]               AUC  8200 ng·h/mL

====

assay: Plasma Mfp levels in cynomolgus monkeys; format: in vivo, cynomolgus macaques (Macaca fascicularis); details: male, cynomolgus monkey, plasma, po, 50 mg/kg
observation_type: AUC (ng·h/mL)

> print(dat)
                                   compound  observation.type  recorded.number
1  CC#C[C@]1(O)CC[C@H]2[C@@H]3CCC4=CC(=O)CCC4=C3[C@@H](c3ccc(N(C)C)cc3)C[C@@]21C [Mfp, mifepristone]               AUC              655
